Assay: chemical genetic growth profiling, strain panel (AID 1159580);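 also: tested at 20 µM; growth read once vehicle control cultures reached saturation at 30 °C; 1 = growth at the plate median or of vehicle wells; lower values mean less growth of the strain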
Conditions: S. cerevisiae deletion strains, growth OD, locus YHR087W, strain rtc3, hits give low values
The whole screen tested about 5,500 compounds, of which about 2,000 (36%) were called active. About 18% were inconclusive and are not listed. The list shows a part of the results.
I'd be grateful if you could share measured normalized growth for these entries.
Give bare numbers.

Sample records with normalized growth:
{"Molecule": "O=C(O)c1ccc(N=Cc2ccc3c(c2)OCO3)cc1", "Endpoint": "normalized growth", "Test Result": 1}
{"Molecule": "O=C(COc1ccc2c(c1)OCO2)N1CCN(c2ncc(C(F)(F)F)cc2Cl)CC1", "Endpoint": "normalized growth", "Test Result": 0.977}
{"Molecule": "CC(C)c1ccccc1NC(=S)N1CCN(c2ncc(C(F)(F)F)cc2Cl)CC1", "Endpoint": "normalized growth", "Test Result": 1.02}
{"Molecule": "Cc1nc(-c2nnc(Sc3ccc(C(F)(F)F)cc3[N+](=O)[O-])n2C)cs1", "Endpoint": "normalized growth", "Test Result": 1.02}
{"Molecule": "Cc1cc(C2=CSC3=NCCN23)ccc1Cl", "Endpoint": "normalized growth", "Test Result": 1.01}
{"Molecule": "CCCC(CC(=O)O)(C(=O)O)c1ccccc1 (configuration not stated)", "Endpoint": "normalized growth", "Test Result": 1}
{"Molecule": "Cc1cccc(NC(=S)NCc2ccncc2)c1", "Endpoint": "normalized growth", "Test Result": 0.99}
{"Molecule": "N#CC(NCc1ccccc1)c1ccc(Cl)c(Cl)c1 (configuration not stated)", "Endpoint": "normalized growth", "Test Result": 1.01}
{"Molecule": "CC(C)(C)c1ccc(-c2n[nH]c(=S)n2-c2cccc(C(F)(F)F)c2)cc1", "Endpoint": "normalized growth", "Test Result": 1}
{"Molecule": "CS/C(N)=N\\N=C/c1c(F)cccc1Cl", "Endpoint": "normalized growth", "Test Result": 0.979}

Answer for every listed entry: what is its normalized growth? The entries follow.
1. COC(=O)C1Cc2c([nH]c3ccccc23)C2(CCN(C)CC2)N1 (configuration not stated)
2. Nc1ccc(-n2nc(C(F)(F)F)cc2C(F)(F)F)cc1
3. COc1ccc(-c2n[nH]c(=S)n2-c2cccc(OC)c2)cc1

Given back:
0.998
1.01
1.02

// each listed molecule needs a value for normalized growth
1. Cc1noc(C)c1C(=O)N1CCN(c2ncc(C(F)(F)F)cc2Cl)CC1
2. Cn1c(CSCC(=O)Nc2ccccc2)n[nH]c1=S
3. CC(=O)Nc1c(C)c(C)c(C)c(C)c1NC(C)=O
4. O=[N+]([O-])c1ccccc1SCc1n[nH]c(=S)n1-c1cccc(C(F)(F)F)c1

Given back:
1. 0.975
2. 1.01
3. 0.997
4. 1.01
